measurement.target: T1, human serum albumin (human, UniProt P02768 25-609)
T1 construct: Immobilised on SPR chips; also added in solution to the cell assays; also called HSA; humanSA
protocol.notes: SPR Biacore 3000, HSA on chip, pH 7.4
reported.metric: R0 pH7.4 (RU)

binder: TA-Fc-ABDEG-2H11-v12 (Fc fusion, Scaffold as for m24) DKTHTCPPCPAPELLGGPSVFLFPPKPKDTLYITREPEVTCVVVDVSHEDPEVKFNWYVDGVEVHNAKTKPREEQYNSTYRVVSVLTVLHQDWLNGKEYKCKVSNKALPAPIEKTISKAKGQPREPQVYTLPPSRDELTKNQVSLTCLVKGFYPSDIAVEWESNGQPENNYKTTPPVLDSDGSFFLYSKLTVDKSRWQQGNVFSCSVMHEALKFHYTQKSLSLSPGGGGGSGGGGSGGGGSGGGGSELQVVESGGGLVQAGGSLRLSCAASGRTFRSNTMGWFRQAPGKEREFVAAITWSGGTTYYADSVKGRFAISGDNAKNTVYLQMNSLKPEDTAVYYCAAEGPKWEPWNGIAHPADFGSWGQGTQVTVSS
test.result: 6.32
